Data provenance: paper PMC7819943

Below, each of the sequences is paired with its reported binding signal value.
Biological target: OsWOX13 (Oryza sativa, UniProt Q5QMM3 1-267)
Sequence: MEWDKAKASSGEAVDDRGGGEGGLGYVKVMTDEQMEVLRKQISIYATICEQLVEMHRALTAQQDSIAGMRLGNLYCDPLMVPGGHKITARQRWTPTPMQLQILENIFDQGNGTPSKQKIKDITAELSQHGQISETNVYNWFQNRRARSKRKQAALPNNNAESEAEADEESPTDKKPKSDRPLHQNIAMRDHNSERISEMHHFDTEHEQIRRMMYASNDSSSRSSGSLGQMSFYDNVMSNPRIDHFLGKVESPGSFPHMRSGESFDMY
Assay: protein-binding microarray (RPBM); PBS, 2% BSA, 51.3 ng/ul salmon testes DNA, 50 uM zinc acetate, 200 nM TF, 25 C, 1 h; high values mean tight binding
Conditions: protein: recombinant; tags: N-terminal polyhistidine and DsRed monomer fusion (pET32a); label: CyDye5-dUTP incorporated in the synthesized complementary strand; 3' TTTTT single-stranded linker to array surface; dsDNA, one strand shown
In all, about 35,000 sequences were measured (“fluorescence intensity (a.u.)”: median about 10,000, highest 2% from about 52,000 on). The sample holds the highest values, similar sequences and a random draw of the others, so the mix is not that of the screen.
EXPERIMENTAL_READOUT: binding signal

TCCACTAATATTAACCAATAGACAGATATACTATCACAGTCGGAGTCACCTAGTGCAG | 10800 fluorescence intensity (a.u.)
GGTAATTGATTATGCACCTGATCTAGATACATGTACAGCTCGGAGTCACCTAGTGCAG | 61800 fluorescence intensity (a.u.)
GGTGATTAGACCGGTGATCTATACCGGTCAGACCGATAGCCGGAGTCACCTAGTGCAG | 47800 fluorescence intensity (a.u.)
TAGATTAATTTGTCATCAAAACACCCTCATATAATTAATTCGGAGTCACCTAGTGCAG | 19200 fluorescence intensity (a.u.)
ATCTATAATTAGATTGATATGATTATCTTGTGTACAACAACGGAGTCACCTAGTGCAG | 37800 fluorescence intensity (a.u.)
TTACTTAATTACTATAGATAATTAGTTGATTAGTGTTACTCGGAGTCACCTAGTGCAG | 45000 fluorescence intensity (a.u.)
AATAGATAGATTGATACCACCACTTAACTATACTAATGCTCGGAGTCACCTAGTGCAG | 63700 fluorescence intensity (a.u.)
TAGCCACCGTGATTGATTGATCTATAGATCGATTGGTGCCCGGAGTCACCTAGTGCAG | 64000 fluorescence intensity (a.u.)
AAAATTGACTAGAGTGCTCTCACAAAATAAACTAGAGAGACGGAGTCACCTAGTGCAG | 7000 fluorescence intensity (a.u.)

----------
Biological target: OsWOX13 (Oryza sativa, UniProt Q5QMM3 1-267)
Sequence: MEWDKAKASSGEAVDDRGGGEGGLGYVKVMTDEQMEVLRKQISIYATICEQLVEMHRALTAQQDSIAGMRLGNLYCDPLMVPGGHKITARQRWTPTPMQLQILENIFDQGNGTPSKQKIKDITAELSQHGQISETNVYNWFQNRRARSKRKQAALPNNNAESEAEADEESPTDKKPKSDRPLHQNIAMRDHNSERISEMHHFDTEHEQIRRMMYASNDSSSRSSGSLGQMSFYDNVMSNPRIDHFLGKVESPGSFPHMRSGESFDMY
Assay: protein-binding microarray (RPBM); PBS, 2% BSA, 51.3 ng/ul salmon testes DNA, 50 uM zinc acetate, 200 nM TF, 25 C, 1 h; high values mean tight binding
Conditions: protein: recombinant; tags: N-terminal polyhistidine and DsRed monomer fusion (pET32a); label: CyDye5-dUTP incorporated in the synthesized complementary strand; 3' TTTTT single-stranded linker to array surface; dsDNA, one strand shown
In all, about 35,000 sequences were measured (“fluorescence intensity (a.u.)”: median about 10,000, highest 2% from about 52,000 on). The sample as a whole holds a higher share of the highest values than the screen did.
EXPERIMENTAL_READOUT: binding signal

TTTATTGATTGAGAGGAACTATCTACCTCTGTAATGACATCGGAGTCACCTAGTGCAG | 46600 fluorescence intensity (a.u.)
TCTCTATAATTAAACATTCCAATTTCGAAAATGTTGTTAGCGGAGTCACCTAGTGCAG | 8580 fluorescence intensity (a.u.)
CATCCAATCAGTTTAGACAAGGTAAAGTCTCATTTTCACACGGAGTCACCTAGTGCAG | 17800 fluorescence intensity (a.u.)
CTCAGATTTGATCAGTGGTAATTTCTCATGTAATCTCATTCGGAGTCACCTAGTGCAG | 10500 fluorescence intensity (a.u.)
AATTGATTAAGATGATGATGAAAGATAATACAGCTCGATCCGGAGTCACCTAGTGCAG | 27100 fluorescence intensity (a.u.)
CTCCACTAATCTAAAATTTGTTTAATGGATCATTGCATCACGGAGTCACCTAGTGCAG | 16000 fluorescence intensity (a.u.)
AAAGATTGAAACTCTGAACATTTAGGACAACGAACATCATCGGAGTCACCTAGTGCAG | 14000 fluorescence intensity (a.u.)
TTAGATTATTGAGTCAGATTACTATAAGCTAGATTATTATCGGAGTCACCTAGTGCAG | 12500 fluorescence intensity (a.u.)
CGATGATTGTAATCTCATTGAACAGATGATCCTTCAGGATCGGAGTCACCTAGTGCAG | 52400 fluorescence intensity (a.u.)

----------
Below, each of the sequences is paired with its reported binding signal value.
Biological target: OsWOX13 (Oryza sativa, UniProt Q5QMM3 1-267)
Sequence: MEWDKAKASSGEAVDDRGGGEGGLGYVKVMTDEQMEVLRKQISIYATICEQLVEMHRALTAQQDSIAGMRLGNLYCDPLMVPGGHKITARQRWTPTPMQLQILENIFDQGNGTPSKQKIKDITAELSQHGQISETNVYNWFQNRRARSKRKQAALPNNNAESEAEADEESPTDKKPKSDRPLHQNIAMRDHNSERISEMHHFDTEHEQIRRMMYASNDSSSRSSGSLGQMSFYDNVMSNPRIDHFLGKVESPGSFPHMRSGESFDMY
Assay: protein-binding microarray (RPBM); PBS, 2% BSA, 51.3 ng/ul salmon testes DNA, 50 uM zinc acetate, 200 nM TF, 25 C, 1 h; high values mean tight binding
Conditions: protein: recombinant; tags: N-terminal polyhistidine and DsRed monomer fusion (pET32a); label: CyDye5-dUTP incorporated in the synthesized complementary strand; 3' TTTTT single-stranded linker to array surface; dsDNA, one strand shown
In all, about 35,000 sequences were measured (“fluorescence intensity (a.u.)”: median about 10,000, highest 2% from about 52,000 on). What follows is part of a selection rich in the highest values, with near analogues and random picks from the rest.
EXPERIMENTAL_READOUT: binding signal

TAATTAATTATAATTAATTAATCCTACTGGTGCTTTCCTTCGGAGTCACCTAGTGCAG | 54300 fluorescence intensity (a.u.)
TCCTGATTGTTCACAATTGTGCTAGTTCAAACAAGGCAAACGGAGTCACCTAGTGCAG | 24800 fluorescence intensity (a.u.)
GAGTAAATTGCACACGGATGCAATCAATTGACCTGTGCTGCGGAGTCACCTAGTGCAG | 20000 fluorescence intensity (a.u.)
ATTTCTTTAATTAATTAATTAATTAACATATATATCCCTTCGGAGTCACCTAGTGCAG | 60600 fluorescence intensity (a.u.)
TGGTATATTAATTATTTCCTTTCCTTCCTTTCCCTTCCGACGGAGTCACCTAGTGCAG | 5690 fluorescence intensity (a.u.)
AATGTGATTTTCATGTATCCAATTAAAATATTTTAAGAAGCGGAGTCACCTAGTGCAG | 9180 fluorescence intensity (a.u.)
GAAATAAATTTTGGATTGGCTATGTTAATATGATATGACCCGGAGTCACCTAGTGCAG | 25900 fluorescence intensity (a.u.)
CACAATTTAATATGGTTATAATTGTAATCTCACATATCCTCGGAGTCACCTAGTGCAG | 7610 fluorescence intensity (a.u.)
ACACTAACAAATCAATTTTCTCTACCCACCACTCCTGAATCGGAGTCACCTAGTGCAG | 8890 fluorescence intensity (a.u.)
CGTTGATTATTGCGATCGAAACCGTCTCATATAATTTTGCCGGAGTCACCTAGTGCAG | 52500 fluorescence intensity (a.u.)
GACAAGATCAGTCCTAATTATATATATGTTTTACCTTCTACGGAGTCACCTAGTGCAG | 4490 fluorescence intensity (a.u.)
TGTAACTATTATATAAATTGGCTATTAAGTTTGACTATAGCGGAGTCACCTAGTGCAG | 17800 fluorescence intensity (a.u.)
CATTGGAATTGATGATCACATTATACATGGATTTGACCCACGGAGTCACCTAGTGCAG | 30600 fluorescence intensity (a.u.)
AGTAGTTAATTGGATTGGGCCGGGCCCACCGGCCCACGGCCGGAGTCACCTAGTGCAG | 30300 fluorescence intensity (a.u.)
TTAATTCTATCTAGTAGTAGAGTTAGTTATTTATATATTACGGAGTCACCTAGTGCAG | 5310 fluorescence intensity (a.u.)
TAGATTGATCGGACTAACCACCCCATTTTACACCATTTGCCGGAGTCACCTAGTGCAG | 20900 fluorescence intensity (a.u.)
TTGCACTGATTTTGTAACTTAAGGGATACGTCGTATCCGGCGGAGTCACCTAGTGCAG | 6500 fluorescence intensity (a.u.)
ACACATGATTTGCATGCCAACCTTATTTCTCCTTCACTTTCGGAGTCACCTAGTGCAG | 16500 fluorescence intensity (a.u.)
ACGTAATTATAATTTATTTTGTTATGAGTTGGTTTATCACCGGAGTCACCTAGTGCAG | 62600 fluorescence intensity (a.u.)
CTGAAATTGAAGTTAAATGCTACTAGTAATAATTGTACTACGGAGTCACCTAGTGCAG | 30100 fluorescence intensity (a.u.)
CTAATTTAAATTTGTCTCTTTTCTACCCTCAACCATCATTCGGAGTCACCTAGTGCAG | 27200 fluorescence intensity (a.u.)
ACTTAATTAACTTGGTTCTTCCTTTAATTTCTAGCTATATCGGAGTCACCTAGTGCAG | 50100 fluorescence intensity (a.u.)
ATAATTGATAATGAAGACCAAGGAAATGCTTCTTTGGTCCCGGAGTCACCTAGTGCAG | 54300 fluorescence intensity (a.u.)
TTATATTGATTTTCGTATGATTTTGGACACATAAGTACCTCGGAGTCACCTAGTGCAG | 38200 fluorescence intensity (a.u.)
TATAATTATTAATAATTAATTAATTATATATTAATTATTTCGGAGTCACCTAGTGCAG | 26700 fluorescence intensity (a.u.)
CTATTGATTATGATAATTTGAAGTTATATAGCTTGATTTGCGGAGTCACCTAGTGCAG | 57700 fluorescence intensity (a.u.)
AAATCAATTACTAGTGCGCGGTTTGTTGAGGAAAAGGCAACGGAGTCACCTAGTGCAG | 6960 fluorescence intensity (a.u.)
TGGTTATTATATTGATTATAGATAATTTGAAGTTAGTAGTCGGAGTCACCTAGTGCAG | 31500 fluorescence intensity (a.u.)
ACGTAATTATAGCTTATTTTGTTATGAGTTATTTTATCACCGGAGTCACCTAGTGCAG | 24500 fluorescence intensity (a.u.)
CTTATTAACATTTAATTTGGTTTCTTCCTTAATTTGTATCCGGAGTCACCTAGTGCAG | 12600 fluorescence intensity (a.u.)
CCTAATTACGCCATGATTTGATAATATGATGCTACAATAACGGAGTCACCTAGTGCAG | 39600 fluorescence intensity (a.u.)
TTCTGCTGCACCTAATTAATTAAATTTCCCCGCTATAATTCGGAGTCACCTAGTGCAG | 11300 fluorescence intensity (a.u.)
GAGTTGATTTGCGTTGTCTCTCCGTCTCTTTCTTATTAATCGGAGTCACCTAGTGCAG | 20800 fluorescence intensity (a.u.)
ATCACATAAAATTCCAGGGTTAATTGGATCCATGCTACTGCGGAGTCACCTAGTGCAG | 8150 fluorescence intensity (a.u.)
ATTCTCGATTTAACACTAATCATCATTATCCTAATAACCACGGAGTCACCTAGTGCAG | 6320 fluorescence intensity (a.u.)
ATTGGCTAGATTGGAAGCAAGAGAAGCTGCAGCGAAGGCACGGAGTCACCTAGTGCAG | 7860 fluorescence intensity (a.u.)
AGTAATTGATTGGCCGGATGCTACCGGTAGTTACTGACTACGGAGTCACCTAGTGCAG | 60500 fluorescence intensity (a.u.)
